The entries below are paired with their reported composite z-score.
Tested on: wheat germ agglutinin (Triticum aestivum), Alexa647-labelled
Assay: wheat germ agglutinin binders on compound microarrays, profiling panel, artefact control for SMM control-protein annotation, biochemical, small-molecule microarray, 635/667 nm fluorescence (AID 1140);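 note: score merges 667 nm feature emission with signal to noise over triplicate slides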
Conditions: WGA-A647 binding, 635 nm fluorescence, higher = more signal
Output: the number by itself.

Answered examples (3):
- molecule: "[N-]=[N+]=NCc1ccccc1C[C@@]1(C(=O)NCC(O)CO)N=C(c2ccc(OCCCO)cc2)O[C@@H]1c1ccccc1CN=[N+]=[N-] (some centres not stated)"
  composite z-score: 0.91
- molecule: "COC(=O)[C@@]1(Cc2ccccc2)[C@H]2c3cc(C(=O)N(C)C)n(Cc4c(-c5ccccc5)noc4C)c3C[C@H]2CN1C(=O)c1ccccc1"
  composite z-score: 1.17
- molecule: "O=C(NCc1ccccc1)[C@]1(CCS(=O)(=O)c2ccccc2)N=C(c2ccc(OCCCO)cc2)O[C@@H]1c1ccccc1"
  composite z-score: 0.785

Then there is this molecule:
Data request: Fill in: composite z-score of COC(=O)C[C@@H]1C[C@H](C)[C@]2(O1)C(=O)N(Cc1ccccc1)c1ccc(NC(C)=O)cc12 is ___
Data returned: -0.259

###

Quick list: z-score per entry.
Experiment: basal HepG2 mitochondrial membrane potential changes, profiling panel, cell-based, JC-1 fluorescence, 24 h, 100 nL compound (AID 1167); note: test concentration not given here
Conditions: higher = more signal
# output: bare number, no unit

Reference set (2 entries):
- compound: "COCCOC(=O)N1C(=O)[C@@]2(c3cc(C#CCNC(N)=O)ccc31)[C@H](C(=O)N1CCc3cc(OC)c(OC)cc3C1)[C@H]1C(=O)O[C@H](c3ccccc3)[C@H](c3ccccc3)N1[C@@H]2c1ccc(OCCO)cc1"
  property.measured: "z-score"
  recorded.value: -0.691
- compound: "O=C1OCCC/C=C\\[C@H]2OC34C=CCN(Cn5nnc6ccccc65)C(=O)[C@H]3N(CCCCCO)C(=O)[C@@H]4C12 (stereo partly drawn)"
  property.measured: "z-score"
  recorded.value: 0.19

Let us move to another entry and its z-score.
Data request: Value lookup for z-score; key = COc1ccc(C(=O)Nc2cccc(CN3C(=O)[C@@]4(O[C@@H](CCn5cc(CCO)nn5)[C@H]([Si](C)(C)c5ccc(OC)cc5)[C@H]4C)c4ccccc43)c2)cc1
Data returned: 0.254

###

System: Sam68 (KHDRBS1)
Assay: Sam68 small-molecule binders, primary screen, biochemical, small-molecule microarray, 635 nm fluorescence (AID 1125);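 note: score merges 667 nm channel intensity with signal to noise over triplicate slides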
Conditions: small-molecule microarray binding, higher = more signal
Lab note: compare composite z-score against 0.5. Equal or greater, write MET. Smaller, write NOT MET.

- compound: "C[C@H]1NC(=O)[C@H](Cc2ccccc2)NC(=O)[C@@]23C(=O)N[C@@H](Cc4ccccc4)C2[C@H](C)[C@@]2(C)O[C@H]2C3/C=C/C/C=C\\CNC1=O (stereo partly drawn)"
  assay.system: "Sam68 (KHDRBS1)"
  label.value: "NOT MET"
- compound: "O=C1N(CCS(=O)(=O)c2ccccc2)Cc2ccccc2C[C@]12N=C(c1ccc(OCCCO)cc1)O[C@@H]2c1ccccc1"
  assay.system: "Sam68 (KHDRBS1)"
  label.value: "MET"
- compound: "CC(C)N1C(=O)C[C@@](C(=O)NCc2ccccc2)(c2ccc([N+](=O)[O-])cc2)[C@H]1c1ccc(CO)cc1"
  assay.system: "Sam68 (KHDRBS1)"
  label.value: "MET"
- compound: "COCCCNC(=O)[C@@]1(c2ccc([N+](=O)[O-])cc2)CC(=O)N(CC23CC4CC(CC(C4)C2)C3)[C@@H]1c1ccc(CO)cc1"
  assay.system: "Sam68 (KHDRBS1)"
  label.value: "MET"

Data request: I'd appreciate it if you could say whether CC(C)c1ccc(NN2C(C(O)c3cccc(O)c3)C=CC3C(=O)N(c4ccccc4)C(=O)C32)cc1 (stereo not drawn) has composite z-score at least equal to 0.5.
Data returned: MET

Data request: Now give it for Cc1c(NC(=O)CC#N)c(=O)n(-c2ccccc2)n1C too.
Data returned: MET

Data request: How about this compound: C=CCC(OC(C)=O)[C@@H]1[C@@H](N(Cc2cccc3ccccc23)C(=O)c2ccc(C)cc2)c2cc(OCCCO)ccc2N1C(=O)Cc1ccc(OC)cc1 (stereo partly drawn)
Data returned: NOT MET

Data request: Another compound to look at: COC(=O)c1ccc(OC)c(/C=C\CC(OC(C)=O)c2ccccc2)c1 (stereo not drawn)
Data returned: NOT MET

All values here come from PubChem BioAssay.
